Measured red/green cell ratio (normalised) accompanies every entry in the list below.
Experiment: differential killing of epithelial or mesenchymal cells, primary screen, imaging, PC-3E GFP, TEM4-18 mCherry, co-culture (AID 1345086);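 also: cells exposed to compound for 72 h before imaging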;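 as to red/green cell ratio (normalised): normalised mesenchymal count divided by normalised epithelial count so high means epithelial killing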
Conditions: imaging cell counts, at 1 µM, actives lie on both sides, counts scaled to control wells, 1 = unselective
Activity calls are given as the source filed them.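 The calls were made as follows: active = compounds killing one labelled cell type while sparing the other, by normalised counts and ratio limits, not self-fluorescent; inactive = the rest.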

Illustrative cases are given below, each with its answer.
COc1ccc(-c2coc3c(O)c(OC)ccc3c2=O)cc1: 0.97 (inactive)
O=C(OOC(=O)c1ccccc1)c1ccccc1: 1.04 (inactive)

// query Can you look up the measured red/green cell ratio (normalised) of CC(=O)O[C@H]1C[C@@H](OC(C)=O)C(C)(C)C2CC(=O)[C@]3(C)C(CC[C@@]4(C)[C@H](c5ccoc5)OC(=O)[C@H]5O[C@]543)[C@]21C (stereo not given in full) for me?
// result 0.93 (inactive)

// query red/green cell ratio (normalised) value for entry "COc1cc(C)c(C(=O)Oc2cc(C)c(C(=O)O)c(O)c2C)c(OC)c1C"
// result 1.11 (inactive)

// query Data request, read-out red/green cell ratio (normalised), for CC(C)NCC(O)COc1cccc2[nH]ccc12 (stereo not given)
// result 1.41 (inactive)

// query Value lookup for red/green cell ratio (normalised); key = "COc1cc(Cc2cnc(N)nc2N)cc(OC)c1OC"
// result 1.12 (inactive)

// query # red/green cell ratio (normalised) lookup, item "NC(N)=NC(=O)c1nc(Cl)c(N2CCCCCC2)nc1N"
// result 0.8 (inactive)

---

Recorded measurements of normalised cell number, one per entry
Test: differential killing of epithelial or mesenchymal cells, primary screen, imaging, PC-3E GFP, TEM4-18 mCherry, co-culture (AID 1345086);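 also: cells exposed to compound for 72 h before imaging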
Details: imaging cell counts, measured here: epithelial PC-3E GFP cell survival, at 1 µM

Observe how each entry below is paired with its result.
CC1=CC(=O)C(C(C)C)=CC1=O: 0.99
CNCCCC1c2ccccc2C=Cc2ccccc21: 0.98

Now turn to the next compound.
// query What value of normalised cell number has been reported for the following compound? "CN(C(=O)C(Cl)Cl)c1ccc(OC(=O)c2ccco2)cc1"
// result 0.98

---

Test: differential killing of epithelial or mesenchymal cells, primary screen, imaging, PC-3E GFP, TEM4-18 mCherry, co-culture (AID 1345086);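 also: cells exposed to compound for 72 h before imaging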;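 as to red/green cell ratio (normalised): normalised mesenchymal count divided by normalised epithelial count so high means epithelial killing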
Conditions: imaging cell counts, at 1 µM, actives lie on both sides, counts scaled to control wells, 1 = unselective
In this section, each of the compounds is paired with its reported red/green cell ratio (normalised).
Enter a number only.

CC(=O)NC(C(=O)O)C(C)(C)SN=O (centres undefined): 1.02
CC(=O)O[C@@H]1CC2C(C)(C)[C@H](O)CC[C@]2(C)C2CC[C@@]3(C)[C@H](c4ccoc4)OC(=O)C4OC43[C@@]21C (some centres undefined): 1.03
COc1ccc(-c2cc(=O)c3c(OC(C)=O)cc(OC(C)=O)cc3o2)cc1: 0.89
COc1c2occc2cc2ccc(=O)oc12: 1.15
CCCc1nc(C(C)(C)O)c(C(=O)OCc2oc(=O)oc2C)n1Cc1ccc(-c2ccccc2-c2nn[nH]n2)cc1: 1.07
Oc1c(I)cc(Cl)c2cccnc12: 1
Cc1cc2nc3ccc(=[N+](C)C)cc-3sc2cc1N: 1.59
NCCCNCCSP(=O)(O)O: 1.19

// query Sample "C[N+](C)(C)CCCCCCCCCC[N+](C)(C)C" — what was its red/green cell ratio (normalised)?
// result 0.87

// query // returns reported red/green cell ratio (normalised) for input CN(C)CCOC(c1ccccc1)c1ccccc1 (tested in a mixture with another compound)
// result 1.07

// query # input compound: "Cc1cccc(C)c1NC(=O)c1ccccc1C(=O)O" ; wanted: its red/green cell ratio (normalised)
// result 0.84

// query Can you share its red/green cell ratio (normalised)? I mean this compound: "S=C=Nc1ccc(N=C=S)cc1"
// result 0.76

// query Entry CC(C)=CCCC1(C)C=Cc2c(O)c3c(c(CC=C(C)C)c2O1)OC12C(=CCCC1C(C)(C)O[C@@]2(C/C=C(\C)C(=O)O)C(=O)O)C3=O (some centres undefined) has what red/green cell ratio (normalised)?
// result 0.93

// query Using the record for "CCOC(=O)c1ccc(O)cc1" , report its red/green cell ratio (normalised).
// result 0.82
